study-system: Human Prostaglandin H2 Synthase Typ II (Cox-2) (Homo sapiens)
Construct: endogenous in cells
Sequence (P35354 18-604): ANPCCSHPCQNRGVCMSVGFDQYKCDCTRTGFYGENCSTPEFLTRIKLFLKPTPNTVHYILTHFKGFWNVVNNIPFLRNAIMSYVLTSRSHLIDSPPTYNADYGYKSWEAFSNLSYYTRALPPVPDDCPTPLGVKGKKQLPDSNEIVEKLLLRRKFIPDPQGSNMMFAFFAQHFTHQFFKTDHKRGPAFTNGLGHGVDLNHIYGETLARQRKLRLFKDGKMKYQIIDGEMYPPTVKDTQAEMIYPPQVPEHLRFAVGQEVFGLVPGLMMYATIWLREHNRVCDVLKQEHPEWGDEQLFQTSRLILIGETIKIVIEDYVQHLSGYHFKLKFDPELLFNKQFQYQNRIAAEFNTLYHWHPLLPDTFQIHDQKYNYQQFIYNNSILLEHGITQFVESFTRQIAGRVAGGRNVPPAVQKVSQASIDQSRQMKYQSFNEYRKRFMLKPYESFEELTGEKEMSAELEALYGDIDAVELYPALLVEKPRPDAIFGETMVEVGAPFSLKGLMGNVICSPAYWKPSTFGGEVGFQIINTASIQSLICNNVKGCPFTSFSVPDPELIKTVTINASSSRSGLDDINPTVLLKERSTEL
protocol: Human Prostaglandin H2 Synthase Typ II (Cox-2) Whole Cell Assay, ECV-304 cells (Procedure III)
test-parameters: ECV-304 whole cells, PGE2 produced; read-out: Procedure III (COX-2) Wh Cell IC50
pIC50: −log10 of the molar value.
measurement-label: pIC50

Cc1cc(Oc2ccc(NS(C)(=O)=O)s2)ccc1F : 5.93
CS(=O)(=O)Nc1ccc(Oc2ccccc2)s1 : 5.37
CS(=O)(=O)Nc1ccc(Oc2ccc(F)cc2F)s1 : 5.71

[A] CS(=O)(=O)Nc1ccc(Oc2ccc(Cl)cc2)s1
[B] CS(=O)(=O)Nc1ccc(Oc2cccc3c2CCCC3)s1
Request: Could you kindly indicate whether A or B has the higher pIC50 value? API: response body contains the label of the selected item.
Result: B
(B: 5.00, A: 4.74)

* * *

study-system: 5-lipoxygenase (5-LO) (Rattus norvegicus)
Construct: endogenous in cells; host or cells: intact RBL-1 (rat basophilic leukemia) cells, stimulated with calcium ionophore A23187
Sequence (P12527 1-673): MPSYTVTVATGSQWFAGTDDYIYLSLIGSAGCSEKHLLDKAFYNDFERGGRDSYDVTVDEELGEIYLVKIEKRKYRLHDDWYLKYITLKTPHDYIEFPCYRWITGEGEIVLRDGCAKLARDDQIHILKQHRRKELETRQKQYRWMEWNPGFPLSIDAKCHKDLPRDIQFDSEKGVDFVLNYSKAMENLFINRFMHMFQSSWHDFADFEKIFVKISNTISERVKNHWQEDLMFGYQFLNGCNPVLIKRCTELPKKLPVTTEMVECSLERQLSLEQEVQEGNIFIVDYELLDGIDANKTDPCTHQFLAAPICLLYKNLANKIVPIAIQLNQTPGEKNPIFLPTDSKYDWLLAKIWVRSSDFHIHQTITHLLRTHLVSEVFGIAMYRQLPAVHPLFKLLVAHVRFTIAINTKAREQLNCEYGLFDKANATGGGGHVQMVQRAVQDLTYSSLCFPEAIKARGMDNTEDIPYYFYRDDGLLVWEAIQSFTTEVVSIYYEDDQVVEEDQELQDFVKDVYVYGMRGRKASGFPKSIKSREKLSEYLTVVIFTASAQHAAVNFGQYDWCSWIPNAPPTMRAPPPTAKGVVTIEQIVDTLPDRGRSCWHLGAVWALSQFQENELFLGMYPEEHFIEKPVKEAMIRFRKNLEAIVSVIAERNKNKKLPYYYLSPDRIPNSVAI
protocol: RBL-1 cell 5-lipoxygenase and cyclooxygenase - Whole cells (Procedure II)
Type: cell-based
test-parameters: intact RBL-1 cells, 5-HETE; read-out: Procedure II (5-LO) Wh Cell IC50
measurement-label: IC50 (nM)

Below, each entry is followed by its recorded IC50 result.
CS(=O)(=O)Nc1ccc(Oc2cccc3ccccc23)s1 [Example 21] : 800
CS(=O)(=O)Nc1ccc(Oc2ccccc2)s1 [Example 2] : 470
CS(=O)(=O)Nc1ccc(-c2ccccc2)s1 [Example 33] : 790
CS(=O)(=O)Nc1ccc(Sc2ccccc2)s1 [Example 28] : 700
CS(=O)(=O)Nc1ccc(Oc2ccc(Cl)cc2)s1 [Example 12] : 660
CS(=O)(=O)Nc1ccc(Oc2ccc(F)cc2)s1 [Example 1] : 460
CSc1ccc(Oc2ccc(NS(C)(=O)=O)s2)cc1 [Example 4] : 660

[P] CS(=O)(=O)Nc1ccc(Oc2ccc(Cl)cc2Cl)s1 [Example 13]
[Q] CS(=O)(=O)Nc1ccc(Oc2cc(C(F)(F)F)cc(C(F)(F)F)c2)s1 [Example 18]
[R] CS(=O)(=O)Nc1ccc(Oc2ccc(S(C)(=O)=O)cc2)s1 [Example 5]
Request: Hello, I need these entries ordered by IC50, highest reading first. Thanks! I'd appreciate it if you listed the labels in the requested order.
Result: R, Q, P

* * *

study-system: 5-lipoxygenase (5-LO) (Rattus norvegicus, UniProt P12527)
Construct: endogenous in cells; host or cells: intact RBL-1 (rat basophilic leukemia) cells, stimulated with calcium ionophore A23187
Sequence (P12527 1-673): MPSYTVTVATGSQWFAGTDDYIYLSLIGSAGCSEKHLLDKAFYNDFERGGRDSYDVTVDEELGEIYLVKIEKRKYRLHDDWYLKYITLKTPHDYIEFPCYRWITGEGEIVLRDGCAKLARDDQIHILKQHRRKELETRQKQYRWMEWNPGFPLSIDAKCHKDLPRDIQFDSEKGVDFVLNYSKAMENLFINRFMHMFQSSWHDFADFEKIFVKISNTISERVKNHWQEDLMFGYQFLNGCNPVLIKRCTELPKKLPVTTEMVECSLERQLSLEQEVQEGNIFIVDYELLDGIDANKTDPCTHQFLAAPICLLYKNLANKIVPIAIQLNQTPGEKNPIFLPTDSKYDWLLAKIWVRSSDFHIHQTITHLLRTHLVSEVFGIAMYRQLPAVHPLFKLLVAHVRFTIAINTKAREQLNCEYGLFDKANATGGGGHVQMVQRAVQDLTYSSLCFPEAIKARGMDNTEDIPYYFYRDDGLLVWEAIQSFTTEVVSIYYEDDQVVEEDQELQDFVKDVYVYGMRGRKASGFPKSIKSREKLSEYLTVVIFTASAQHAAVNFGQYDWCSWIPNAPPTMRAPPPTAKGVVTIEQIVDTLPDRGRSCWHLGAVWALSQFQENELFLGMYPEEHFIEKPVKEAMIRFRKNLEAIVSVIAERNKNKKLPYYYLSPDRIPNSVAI
protocol: RBL-1 cell 5-lipoxygenase and cyclooxygenase - Homogenate (Procedure I)
Assay type: biochemical
test-parameters: RBL-1 homogenate supernatant, 5-HETE; read-out: Procedure I (5-LO) Homog. IC50
measurement-label: IC50 (nM)

Please review the entries below; each comes with its answer.
CC(C)c1cccc(Oc2ccc(NS(C)(=O)=O)s2)c1 : 610
COc1ccc(Oc2ccc(NS(C)(=O)=O)s2)cc1 : 20
CS(=O)(=O)Nc1ccc(-c2ccccc2)s1 : 110
CS(=O)(=O)Nc1ccc(Oc2ccc(F)cc2)s1 : 130
CS(=O)(=O)Nc1ccc(Oc2ccc(Cl)cc2)s1 : 75

[1] CS(=O)(=O)Nc1ccc(Oc2cccc3ccccc23)s1
[2] CS(=O)(=O)Nc1ccc(Oc2ccc(S(C)(=O)=O)cc2)s1
Request: // task: argmin of IC50 over [ 1 , 2 ] Answer = label.
Result: 1

* * *

study-system: 5-lipoxygenase (5-LO) (Rattus norvegicus, UniProt P12527)
Construct: endogenous in cells; host or cells: intact RBL-1 (rat basophilic leukemia) cells, stimulated with calcium ionophore A23187
Sequence (P12527 1-673): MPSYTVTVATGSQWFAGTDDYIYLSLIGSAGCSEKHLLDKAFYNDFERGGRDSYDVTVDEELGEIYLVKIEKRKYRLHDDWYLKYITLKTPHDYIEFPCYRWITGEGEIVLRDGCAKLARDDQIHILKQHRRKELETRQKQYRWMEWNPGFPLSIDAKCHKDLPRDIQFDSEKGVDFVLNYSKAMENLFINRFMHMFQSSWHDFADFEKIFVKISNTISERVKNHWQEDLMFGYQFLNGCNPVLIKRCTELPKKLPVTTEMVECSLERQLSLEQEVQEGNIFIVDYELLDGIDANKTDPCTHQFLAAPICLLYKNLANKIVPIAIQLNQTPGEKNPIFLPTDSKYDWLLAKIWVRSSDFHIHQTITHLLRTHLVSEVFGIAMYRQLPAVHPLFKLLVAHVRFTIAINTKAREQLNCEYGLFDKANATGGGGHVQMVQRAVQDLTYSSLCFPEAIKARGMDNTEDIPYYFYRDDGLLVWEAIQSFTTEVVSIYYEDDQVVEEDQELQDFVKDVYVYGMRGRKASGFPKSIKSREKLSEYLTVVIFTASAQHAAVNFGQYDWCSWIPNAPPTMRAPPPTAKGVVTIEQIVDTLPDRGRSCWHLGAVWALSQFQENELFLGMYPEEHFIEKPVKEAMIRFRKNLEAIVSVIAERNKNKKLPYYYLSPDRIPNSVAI
protocol: RBL-1 cell 5-lipoxygenase and cyclooxygenase - Homogenate (Procedure I)
Type: biochemical
measurement-label: IC50 (nM)
# value in nM; strip the unit string

Request: Answer with reported IC50 of CS(=O)(=O)Nc1ccc(Oc2cc(C(F)(F)F)ccc2Cl)s1
Result: 140

* * *

study-system: 5-lipoxygenase (5-LO) (Rattus norvegicus, UniProt P12527)
Construct: endogenous in cells; host or cells: intact RBL-1 (rat basophilic leukemia) cells, stimulated with calcium ionophore A23187
protocol: RBL-1 cell 5-lipoxygenase and cyclooxygenase - Whole cells (Procedure II)
Type: cell-based
test-parameters: intact RBL-1 cells, 5-HETE; read-out: Procedure II (5-LO) Wh Cell IC50
measurement-label: IC50 (nM)

CS(=O)(=O)Nc1ccc(Oc2ccc(F)cc2Br)s1 [Example 17] : 1400
COc1ccc(Oc2ccc(NS(C)(=O)=O)s2)cc1 [Example 7] : 1450

[I] Cc1cc(Oc2ccc(NS(C)(=O)=O)s2)ccc1F [Example 11]
[II] CS(=O)(=O)Nc1ccc(-c2ccc(F)cc2)s1 [Example 32]
[III] CS(=O)(=O)Nc1ccc(Oc2cccc(C(F)(F)F)c2)s1 [Example 10]
[IV] CS(=O)(=O)Nc1ccc(Oc2cccc(F)c2)s1 [Example 3]
Request: Sort (4 molecules) by IC50: min first. Your task in answering is to list the labels in the requested order.
Result: I, IV, III, II

[a] Cc1cc(F)ccc1Oc1ccc(NS(C)(=O)=O)s1 [Example 16]
[b] CCCCCSc1ccc(NS(C)(=O)=O)s1 [Example 30]
Request: Parameter check: reported IC50 is higher for which label, a or b ? When you have decided, please share the label of that item.
Result: a
(a: 1090 nM, b: 630 nM)
